src = paper PMC12472494

Below, each entry is listed alongside its reported Latency to Tremor and Seizure Onset.
test system: strychnine-induced seizures; experiment: Strychnine-induced seizure model; format: in vivo, mice; conditions: oral dose 1.0 mg/kg 60 min before strychnine 1.5 mg/kg s.c.; mean ± SD, N = 10
Provide only the numeric value, understood in min.

Below, 4 compounds whose answers are already recorded.
COc1cc2c(cc1OC)C(c1cccc(Cl)c1)NCC2 (centres unmarked) [Compound 11] :: 15.5
COc1cc2c(cc1OC)C(c1ccc(O)cc1)NCC2 (centres unmarked) [Compound 4] :: 14.2
COc1cc2c(cc1OC)C(c1ccc3c(c1)OCO3)NCC2 (centres unmarked) [Compound 29] :: 12.5
COc1cc2c(cc1OC)C(c1cc(Br)c(O)c(OC)c1)NCC2 (centres unmarked) [Compound 28] :: 15.5

For the next question, use this compound.
Record summary for COc1cc2c(cc1OC)C(c1ccc(N(C)C)cc1)NCC2 (centres unmarked) [Compound 16] : reported Latency to Tremor and Seizure Onset = 13.1
